This collection of values is drawn from patent US20240116985A1.

# TEST TARGET: T1, B-cat-Halo (beta-catenin HaloTag fusion expressed in HEK293 cells) (UniProt P35222 1-781)
# T1 sequence (looked up): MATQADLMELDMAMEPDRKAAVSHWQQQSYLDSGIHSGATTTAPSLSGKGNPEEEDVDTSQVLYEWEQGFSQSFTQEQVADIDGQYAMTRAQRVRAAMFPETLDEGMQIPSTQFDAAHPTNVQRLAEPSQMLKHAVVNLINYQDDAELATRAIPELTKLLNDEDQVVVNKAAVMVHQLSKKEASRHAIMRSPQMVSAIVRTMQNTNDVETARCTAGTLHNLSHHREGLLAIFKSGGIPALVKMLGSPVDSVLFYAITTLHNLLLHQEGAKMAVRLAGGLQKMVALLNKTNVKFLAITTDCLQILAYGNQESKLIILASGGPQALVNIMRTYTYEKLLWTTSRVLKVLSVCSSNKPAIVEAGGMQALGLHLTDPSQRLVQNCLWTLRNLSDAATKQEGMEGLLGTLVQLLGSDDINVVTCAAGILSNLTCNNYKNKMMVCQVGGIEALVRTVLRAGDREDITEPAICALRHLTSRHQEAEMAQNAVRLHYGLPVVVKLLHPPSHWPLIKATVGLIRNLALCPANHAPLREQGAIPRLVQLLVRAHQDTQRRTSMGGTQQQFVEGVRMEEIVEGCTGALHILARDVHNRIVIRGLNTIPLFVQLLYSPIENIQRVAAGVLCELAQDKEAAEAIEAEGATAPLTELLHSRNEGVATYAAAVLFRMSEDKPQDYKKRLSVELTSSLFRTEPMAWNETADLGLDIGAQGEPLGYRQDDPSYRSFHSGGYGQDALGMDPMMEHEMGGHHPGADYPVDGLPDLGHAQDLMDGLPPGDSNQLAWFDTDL
# ASSAY PROCEDURE: cell-based or functional assay
Starred links: 1 amine or outer side, 2 acyl side, 3 side chain; linkers in the order of their positions; H or OH if unused. Positions of bridges follow the written chain, without caps; N, C: chain ends. Non-standard residues stand in square brackets, D forms with d. Primed or numbered codes have the meaning given here. PyrS2″ = (S)-3-amino-1-((pent-4-en-1-yloxy)carbonyl)pyrrolidine-3-carboxylic acid (stapling residue), C=CCCCOC(=O)N1CC[C@@](N[*:1])(C(=O)[*:2])C1; B5(4) = 2,2-bis(4-pentenyl)glycine = 2-amino-2-(pent-4-en-1-yl)hept-6-enoic acid (stitching residue), C=CCCCC(CCCC=C)(N[*:1])C(=O)[*:2]; PyrS1 = (S)-3-amino-1-((but-3-en-1-yloxy)carbonyl)pyrrolidine-3-carboxylic acid, C=CCCOC(=O)N1CC[C@@](N[*:1])(C(=O)[*:2])C1; B6 = 2-amino-2-(hex-5-en-1-yl)oct-7-enoic acid, C=CCCCCC(CCCCC=C)(N[*:1])C(=O)[*:2]; Phe(3-COOH) = N[C@@H](Cc1cccc(C(=O)O)c1)C(=O)O; Phe(2-CF3) = N[C@@H](Cc1ccccc1C(F)(F)F)C(=O)O; Bta = N[C@@H](Cc1csc2ccccc12)C(=O)O; αAllylPro = C=CC[C@@]1(C(=O)O)CCCN1; tBuAla = CC(C)(C)C[C@H](N)C(=O)O; 4ClBztA = not defined here
Kindly supply the reported NanoBRET Abs IC50 values for the records listed here.
Quick note: give the figure in µM, leave out the unit.

Challenge: Fill in: NanoBRET Abs IC50 of Ac-[αAllylPro]D[tBuAla][B5(4)]D[Phe(3-COOH)]QAFL[PyrS2″][Phe(2-CF3)][4ClBztA]A-NH2 (staple 1-4, 4-11; reading uncertain) [I-2491] is ___
Response given: 6.1

Challenge: // query NanoBRET Abs IC50 value for entry Ac-[αAllylPro]D[tBuAla][B5(4)]D[Phe(3-COOH)]AAFL[PyrS2″][Phe(2-CF3)][4ClBztA]Q-NH2 (staple 1-4, 4-11; reading uncertain) [I-2490]
Response given: 6.4

Challenge: Recorded NanoBRET Abs IC50 for Ac-[αAllylPro]D[tBuAla][B5(4)]D[Phe(3-COOH)]AAFL[PyrS2″][Phe(2-CF3)][7ClBztA]Q-NH2 (staple 1-4, 4-11) [I-2486] , please?
Response given: 3.7

Challenge: Give the measured NanoBRET Abs IC50 of Ac-[αAllylPro]D[tBuAla][B5(4)]D[Phe(3-COOH)]QAFL[PyrS2″][Phe(2-CF3)][7ClBztA]A-NH2 (staple 1-4, 4-11) [I-2487] .
Response given: 4.2

Challenge: Fill blank: measured NanoBRET Abs IC50 of the binder Ac-[αAllylPro]D[tBuAla][B6]D[Phe(3-COOH)]AAFL[PyrS1][Phe(2-CF3)][Bta]Q-NH2 (staple 1-4, 4-11) [I-2508] is ____.
Response given: 27.3
